# target.system: D(2) dopamine receptor (Homo sapiens, UniProt P14416)
# Sequence (P14416 whole entry): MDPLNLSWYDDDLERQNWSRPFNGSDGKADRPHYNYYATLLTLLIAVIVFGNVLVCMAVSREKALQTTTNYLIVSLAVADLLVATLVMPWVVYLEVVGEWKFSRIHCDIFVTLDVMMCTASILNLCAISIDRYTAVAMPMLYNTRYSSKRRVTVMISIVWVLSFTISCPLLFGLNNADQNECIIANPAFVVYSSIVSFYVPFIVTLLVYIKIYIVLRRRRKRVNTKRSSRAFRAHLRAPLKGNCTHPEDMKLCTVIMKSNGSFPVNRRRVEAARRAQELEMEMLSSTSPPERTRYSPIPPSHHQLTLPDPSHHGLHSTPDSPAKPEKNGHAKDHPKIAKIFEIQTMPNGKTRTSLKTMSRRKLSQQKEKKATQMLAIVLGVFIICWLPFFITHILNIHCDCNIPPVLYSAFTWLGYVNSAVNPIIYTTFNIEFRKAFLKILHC
# protocol.details: Displacement of [3H]spiperone from human cloned dopamine D2 receptor
readout.type: IC50

Input: Kindly state the measured IC50 obtained for O=C(Nc1ccc(Oc2cccnc2)nc1)c1c[nH]c2ccccc12 with D(2) dopamine receptor (Homo sapiens, UniProt P14416).
Output: > 10 µM

====

# target.system: 5-hydroxytryptamine receptor 2A (Homo sapiens)
# Sequence (P28223 whole entry): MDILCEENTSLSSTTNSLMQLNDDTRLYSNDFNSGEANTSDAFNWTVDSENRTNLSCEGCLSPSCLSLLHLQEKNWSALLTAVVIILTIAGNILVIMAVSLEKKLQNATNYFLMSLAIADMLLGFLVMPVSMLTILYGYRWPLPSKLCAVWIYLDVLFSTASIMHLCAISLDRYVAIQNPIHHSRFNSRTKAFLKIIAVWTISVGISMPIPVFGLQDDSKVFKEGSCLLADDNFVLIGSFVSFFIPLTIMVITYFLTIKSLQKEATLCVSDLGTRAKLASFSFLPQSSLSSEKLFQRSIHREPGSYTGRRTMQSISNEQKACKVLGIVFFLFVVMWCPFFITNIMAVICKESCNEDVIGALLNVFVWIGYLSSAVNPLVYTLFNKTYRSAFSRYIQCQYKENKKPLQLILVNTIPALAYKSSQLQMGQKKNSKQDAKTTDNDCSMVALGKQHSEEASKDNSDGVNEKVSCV
readout.type: IC50

Input: I am curious: what IC50 value has been reported for O=C(Nc1ccc(Oc2cccnc2)nc1)c1c[nH]c2ccccc12 ?
Output: > 1 µM
